# Test system: HepG2-GM130-SQSTM1
# assay info: phenotypically active (imaging signature differs from DMSO and reproducible) at any of 0.3-9 uM (binary (1 = active, 0 = inactive)); higher = active
# condition set: treatment time: 24 h
Counter-ions that a name gives are not always drawn.
The reply should name one outcome from TRUE (active), FALSE (inactive)

Data request: Given O[C@H]1[C@H](O)[C@@H](O)CN2CC[C@H](O)[C@H]12 [Castanospermine] , state the outcome it received in this test.
Data returned: FALSE

Data request: Given COc1ccc(C(=O)Cc2c(CCN(C)C)cc3c(c2OC)OCO3)c(C(=O)O)c1OC [Narcétine] , state the outcome it received in this test.
Data returned: FALSE

Data request: Given C[C@]12CC[C@H](O)C[C@H]1CC[C@@H]1[C@@H]2C[C@@H](O)[C@]2(C)[C@@H](C3=CC(=O)OC3)CC[C@]12O [Digoxigenin] , state the outcome it received in this test.
Data returned: TRUE

Data request: Given COc1cc2c3cc1Oc1cc(ccc1O)C[C@@H]1c4c(cc(OC)c(O)c4Oc4cccc(c4)C[C@@H]3N(C)CC2)CC[N+]1(C)C [Tubocurarine chloride pentahydrate (+)] , state the outcome it received in this test.
Data returned: FALSE

Data request: Given CC(=O)O[C@H]1C[C@@H]2CC[C@@H]3[C@H](CC[C@@]4(C)[C@H]3C[C@H]([N+]3(C)CCCCC3)[C@@H]4OC(C)=O)[C@@]2(C)C[C@@H]1[N+]1(C)CCCCC1 [pancuronium] , state the outcome it received in this test.
Data returned: FALSE

Data request: Given CCN(C)C(=O)Oc1cccc([C@H](C)N(C)C)c1 [rivastigmine] , state the outcome it received in this test.
Data returned: FALSE

Data request: Given O=P1(N(CCCl)CCCl)NCCCO1 (stereo unspecified) [cyclophosphamide] , state the outcome it received in this test.
Data returned: FALSE

Data request: Given BrC1C(Br)C(Br)C(Br)C(Br)C1Br (stereo unspecified) [1,2,3,4,5,6-Hexabromocyclohexane] , state the outcome it received in this test.
Data returned: TRUE

Data request: Given `O=C1NC(=O)c2c1c1c3ccccc3n3c1c1c2c2ccccc2n1C1CCC3O1` , state the outcome it received in this test.
Data returned: FALSE

Data request: Given NCC1(CC(=O)O)CCCCC1 [gabapentin] , state the outcome it received in this test.
Data returned: FALSE

Data request: Given `CCN1CCN(C(=O)Cc2ccc(Nc3ncc(F)c(Nc4ccc(C(=O)Nc5ccccc5Cl)cc4)n3)cc2)CC1` , state the outcome it received in this test.
Data returned: TRUE

Data request: Given O=C(NCCN1CCC2(CC1)C(=O)NCN2c1cccc(F)c1)c1ccc(F)c(F)c1 [ML 298 hydrochloride] , state the outcome it received in this test.
Data returned: TRUE

Data request: Given `COc1ccc(N(C(=O)Oc2c(C)cccc2C)c2ccnc(Nc3ccc(N4CCN(C)CC4)cc3)n2)c(OC)c1` , state the outcome it received in this test.
Data returned: TRUE

Data request: Given CN1CCC2=C[C@H](O)[C@H]3OC(=O)c4cc5c(cc4[C@H]3[C@@H]21)OCO5 [Hippeastrine hydrobromide] , state the outcome it received in this test.
Data returned: FALSE

Data request: Given c1cncc(C2CC3CCN2CC3)c1 (stereo unspecified) [RJR 2429 dihydrochloride] , state the outcome it received in this test.
Data returned: FALSE

Data request: Given C[C@H]1CCC2(NC1)O[C@H]1C[C@H]3[C@@H]4CC[C@H]5C[C@@H](O[C@@H]6O[C@H](CO)[C@H](O[C@@H]7O[C@H](CO)[C@@H](O)[C@H](O[C@@H]8OC[C@@H](O)[C@H](O)[C@H]8O)[C@H]7O[C@@H]7O[C@H](CO)[C@@H](O)[C@H](O)[C@H]7O)[C@H](O)[C@H]6O)CC[C@]5(C)[C@H]4CC[C@]3(C)[C@H]1[C@@H]2C (stereo partly specified) [Tomatine] , state the outcome it received in this test.
Data returned: FALSE

Data request: Given CN1C[C@H](C(=O)N[C@]2(C)O[C@@]3(O)[C@@H]4CCCN4C(=O)[C@H](Cc4ccccc4)N3C2=O)C=C2c3cccc4[nH]cc(c34)C[C@H]21 [ergotamine] , state the outcome it received in this test.
Data returned: TRUE

Data request: Given CNCC(O)c1ccc(O)c(OC)c1 (stereo not drawn) [Metanephrine hydrochloride DL] , state the outcome it received in this test.
Data returned: FALSE

Data request: Given CC[C@@H](C)C(=O)O[C@H]1[C@H](O)[C@H]2[C@@H](CN3C[C@@H](C)CC[C@H]3[C@@]2(C)O)C2C[C@]34O[C@]5(O)[C@@H](OC(=O)[C@](C)(O)CC)CC[C@@]3(C)[C@@H]5[C@@H](OC(C)=O)[C@@H](OC(C)=O)[C@H]4[C@@]21O (stereo partly specified) [Protoveratrine A] , state the outcome it received in this test.
Data returned: FALSE

Data request: Given `CCn1cnc2c(Nc3cccc(Cl)c3)nc(N[C@H]3CCCC[C@H]3N)nc21` , state the outcome it received in this test.
Data returned: TRUE

Data request: Given CC1=CC(=O)C2=C(C)C[C@H](O)[C@@H]3[C@H](OC(=O)[C@H]3C)[C@@H]12 [Austricine hydrate] , state the outcome it received in this test.
Data returned: FALSE

Data request: Given C=C1[C@@H](C)[C@H]2[C@H](Cc3ccccc3)NC(=O)[C@]23OC(=O)C=C[C@H](O)CCC[C@@H](C)CC=C[C@H]3[C@@H]1O [Cytochalasin B] , state the outcome it received in this test.
Data returned: TRUE

Data request: Given CC[C@@H](C(=O)[C@@H](C)[C@@H](O)[C@H](C)[C@@H]1O[C@@H]([C@@H](CC)C(=O)O)CC[C@@H]1C)[C@H]1O[C@]2(C=C[C@@H](O)[C@]3(CC[C@@](C)([C@H]4CC[C@](O)(CC)[C@H](C)O4)O3)O2)[C@H](C)C[C@@H]1C [Salinomycin Sodium] , state the outcome it received in this test.
Data returned: TRUE

Data request: Given CC[C@]12C=CCN3CC[C@]4(C(=C(C(=O)OC)C1)Nc1ccccc14)[C@@H]32 [Tabersonine dichlorhydrate] , state the outcome it received in this test.
Data returned: TRUE

Data request: Given CN1C(CC(O)c2ccccc2)CCCC1CC(O)c1ccccc1 (stereo unspecified) [Lobelanidine hydrochloride] , state the outcome it received in this test.
Data returned: FALSE

Data request: Given `N#Cc1c(Oc2cccc(OS(=O)(=O)CCCC(F)(F)F)c2)cccc1C(F)(F)F` , state the outcome it received in this test.
Data returned: TRUE
